# Tested on: CYP3A
# Format: in vivo, human (healthy volunteers)
# assay_setup: human, plasma, po, 8 mg, AUC0-∞, Pre-Echinacea; midazolam 8 mg single oral dose; geometric mean (90% CI)
measurement_label: AUC(0-inf) (ng·h/mL)
Write down the numeric answer in ng·h/mL and omit the unit.

Provide only the value of recorded AUC(0-inf) for Cc1ncc2n1-c1ccc(Cl)cc1C(c1ccccc1F)=NC2 [midazolam]
143

###

# assay_details: clinical
# assay_setup: human, in vivo
measurement_label: Tmax

Give the measured Tmax for "Cc1cccc(C)c1OCC(=O)N[C@@H](Cc1ccccc1)[C@@H](O)C[C@H](Cc1ccccc1)NC(=O)[C@H](C(C)C)N1CCCNC1=O"
2 h
